// provenance: paper PMC9594046

- Tgt: TRIM24 PHD-BRD (Homo sapiens)
- Test method notes: AlphaScreen dose-response displacement of biotinylated H3 peptide
- Condition description: TRIM24 IC50 (AlphaScreen), peptide in assay H31-27K9Me3 (PHD)
Quantity: IC50 (µM)

INSERT INTO measurements (structure_notation, reading_unit, result) VALUES
  ('COC(=O)c1ccc2nc(-c3c[nH]c(C)n3)c(NC3CCCCC3)n2c1', 'µM', 17.1);

P. Cc1nc[nH]c1-c1nc2ccccn2c1NCCN1CCOCC1
Q. COc1ccc(Nc2c(-c3[nH]cnc3C)nc3ccc(Br)cn23)cc1
R. CC(C)(C)Nc1c(-c2c[nH]c3ncccc23)nc2ccccn12
S. Cc1nc[nH]c1-c1nc2ccccn2c1NC1CCCCC1
Q) # rank by IC50, ascending (min first) Write the labels in rank order as requested.
A) Q, S, P, R

====

- Tgt: TRIM33α PHD-BRD (Homo sapiens, UniProt Q9UPN9)
- Sequence (Q9UPN9 888-1127): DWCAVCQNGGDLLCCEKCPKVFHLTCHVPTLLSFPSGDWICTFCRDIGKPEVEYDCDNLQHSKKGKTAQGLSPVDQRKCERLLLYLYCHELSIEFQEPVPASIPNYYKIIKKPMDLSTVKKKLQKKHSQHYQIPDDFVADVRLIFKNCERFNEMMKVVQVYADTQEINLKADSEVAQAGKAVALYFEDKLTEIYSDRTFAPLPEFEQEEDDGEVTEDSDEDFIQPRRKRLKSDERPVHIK
- Test method notes: AlphaScreen dose-response displacement of biotinylated H3 peptide
- Condition description: TRIM33α IC50 (AlphaScreen), peptide in assay H31-27K9Me3 (PHD)
Quantity: IC50 (µM)

I. Cc1nc[nH]c1-c1nc2ccccn2c1NC1CCCCC1
II. COc1ccc(Nc2c(-c3[nH]cnc3C)nc3ccc(Br)cn23)cc1
Q) Thinking about recorded IC50 values, which is higher, I or II ? Could you answer with the label of the item you picked?
A) I

====

- Tgt: TRIM24 PHD-BRD (Homo sapiens)
- Test method notes: AlphaScreen dose-response displacement of biotinylated H3 peptide
- Condition description: TRIM24 IC50 (AlphaScreen), peptide in assay H31-27K18Ac (BRD)
pIC50: −log10 of the molar value.
Quantity: pIC50

Check out these entries, answers already filled in.
INSERT INTO measurements (structure_notation, result) VALUES
  ('COc1ccc(Nc2c(-c3[nH]cnc3C)nc3ccc(Br)cn23)cc1', 5.75),
  ('Cc1nc[nH]c1-c1nc2ccccn2c1NCCN1CCOCC1', 4.73);

a. CC(C)(C)Nc1c(-c2c[nH]c3ncccc23)nc2ccccn12
b. COC(=O)c1ccc2nc(-c3c[nH]c(C)n3)c(NC3CCCCC3)n2c1
c. Cc1nc[nH]c1-c1nc2ccccn2c1NC1CCCCC1
Q) Place the items in sequence of falling pIC50. I would appreciate it if you listed the labels in the requested order.
A) c, b, a

====

- Tgt: TRIM24 PHD-BRD (Homo sapiens)
- Test method notes: AlphaScreen dose-response displacement of biotinylated H3 peptide
- Condition description: IC50 binding to the TRIM24 BRD-PHD (AlphaScreen), displacement of H3_1–27K18Ac
Quantity: pIC50
The quantity pIC50 is defined as the negative base-10 logarithm of the molar concentration.

Q) Value lookup for pIC50; key = COc1ccc(Oc2cc3c(cc2NS(=O)(=O)c2ccc(OC)c(OC)c2)n(C)c(=O)n3C)cc1
A) 6.66

====

- Tgt: TRIM24 WT (Homo sapiens, UniProt O15164)
- Construct: His6-TRIM24 (BRD-PHD); made in house; host or cells: E. coli BL21 (DE3) Gold
- Sequence (O15164 with tags, fused parts or gaps): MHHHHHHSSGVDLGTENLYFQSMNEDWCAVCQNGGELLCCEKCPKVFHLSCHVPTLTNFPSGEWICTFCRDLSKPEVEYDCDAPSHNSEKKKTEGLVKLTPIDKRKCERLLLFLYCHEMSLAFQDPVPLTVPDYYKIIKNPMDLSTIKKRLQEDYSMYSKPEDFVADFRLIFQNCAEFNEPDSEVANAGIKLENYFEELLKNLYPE
- Test method notes: Qualitative WaterLOGSY binding
- Parameters: key: ✓: √ is assigned to compounds that showed binding; ? is assigned when the result was ambiguous; × is assigned when no-binding was observed
- Condition description: 500 µM compound, 20 µM protein
Quantity: WaterLOGSY binding TRIM24 WT

INSERT INTO results (molecule, result) VALUES
  ('Cn1c(=O)n(C)c2cc(CNCCc3ccc(S(N)(=O)=O)cc3)ccc21', '✓'),
  ('O=C(CN1CCOC(c2cncc(-c3cccc(F)c3)n2)C1)NCc1ccccn1 (stereo not shown)', '×'),
  ('O=C(Nc1ccccc1)Nc1ccc2cccnc2c1', '✓'),
  ('Cc1cc2c(NC(=O)Nc3ccccc3)cccc2nn1', '✓');
